B1: ZNF8 (parent)
chain: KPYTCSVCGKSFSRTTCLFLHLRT

Variants of: B1
Procedure text: protein stability index of a GFP-peptide fusion (GPS, HEK-293T) (PSI 1-6); higher = more stable;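 also: lentivirally expressed fusions sorted by FACS into six bins by GFP to DsRed ratio, PSI derived from sequencing read proportions per bin multiplied by bin number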
Test conditions: c terminus: a fixed tail appended
If the reported protein stability index equals or exceeds 2, assign label 1. If not, assign label 0.

Request: Confirm if protein stability index reported for the variant P2G is 2 or above.
Response: label 1

Request: Follow-up item: P2I
Response: label 1

Request: Follow-up item: R23D
Response: label 0

Request: Follow-up item: S13K
Response: label 1

Request: Follow-up item: T4L
Response: label 1

Request: Follow-up item: S11A
Response: label 1

Request: Follow-up item: R14V
Response: label 1

Request: Follow-up item: K1W
Response: label 0

Request: Follow-up item: S13Q
Response: label 1

Request: Follow-up item: H21W
Response: label 0

Request: Follow-up item: L22V
Response: label 0
